Target: T1, GST-human NOGO-A56 (human, UniProt Q9NQC3 586-785)
T1 construct: GST-tagged fusion expressed in E. coli BL21 from pGEX-6P1; also called hNOGO; human NOGO 5+6 GST; not shown: Glutathione S-transferase tag encoded by vector pGEX-6P1 (N-terminal, with vector linker)
T1 sequence: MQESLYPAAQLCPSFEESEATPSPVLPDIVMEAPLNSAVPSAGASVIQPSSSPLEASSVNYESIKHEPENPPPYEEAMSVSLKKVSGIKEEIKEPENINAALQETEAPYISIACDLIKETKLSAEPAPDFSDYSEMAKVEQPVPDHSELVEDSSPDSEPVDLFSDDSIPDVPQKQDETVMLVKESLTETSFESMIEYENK
Assay: SPR off-rate ranking, supernatant from small-scale transient transfection over immobilised GST-human NOGO-A56; single experiment
Recorded metric: koff (s⁻¹)
One number for each entry, in s⁻¹.

H24L13 (antibody, human IgG1, kappa, V domains shown) VH: QVQLVQSGAEVKKPGASVKVSCKASGYTFTSYWMHWVKQRPGQGLEWIGNINPSNGGTNYNEKFKSKATLTVDTSTSTAYMELSSLRSEDTAVYYCELGQGYWGQGTLVTVSS VL: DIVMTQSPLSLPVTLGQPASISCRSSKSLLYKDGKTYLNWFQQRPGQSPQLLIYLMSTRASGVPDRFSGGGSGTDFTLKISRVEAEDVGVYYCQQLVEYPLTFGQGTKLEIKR: 0.00996
H20Lc (antibody, human IgG1, kappa, V domains shown) VH: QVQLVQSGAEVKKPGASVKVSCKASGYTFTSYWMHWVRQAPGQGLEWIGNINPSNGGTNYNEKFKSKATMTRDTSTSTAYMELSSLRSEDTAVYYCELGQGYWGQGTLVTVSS VL: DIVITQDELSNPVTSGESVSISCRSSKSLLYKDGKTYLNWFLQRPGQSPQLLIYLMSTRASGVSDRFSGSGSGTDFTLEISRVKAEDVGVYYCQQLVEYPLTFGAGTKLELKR: 0.00507

Turning now to a further binder:
Recorded koff for H24L16 (antibody, human IgG1, kappa, V domains shown, human gamma1 mutated constant region, human kappa) VH: QVQLVQSGAEVKKPGASVKVSCKASGYTFTSYWMHWVKQRPGQGLEWIGNINPSNGGTNYNEKFKSKATLTVDTSTSTAYMELSSLRSEDTAVYYCELGQGYWGQGTLVTVSS VL: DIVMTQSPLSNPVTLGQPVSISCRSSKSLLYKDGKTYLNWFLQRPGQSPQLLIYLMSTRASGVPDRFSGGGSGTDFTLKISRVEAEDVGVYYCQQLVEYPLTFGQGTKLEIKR , please?
0.00585
